Tested on: COLO 205 colon
Assay: NCI tumour cell line growth inhibition, 48 h
Catalogue of compounds with associated TGI

Cc1ccccc1-n1ncc(C(=O)c2ccccc2)c1N	> 25 µM
Cc1cc(S(=O)(=O)Nc2cc(N)[nH]n2)c(SCc2nc(N)nc(N(C)C)n2)cc1Cl	> 10 µM
CC(=O)NC1=C(NCCN(C)C)C(=O)c2ccccc2C1=O	17.7 µM
O=c1[nH]nc(Cc2ccccc2)n1/N=C\c1ccccc1	> 100 µM

Consider the additional compound presented here.
Input CC[P+](C)(C)c1ccccc1 . Output TGI: > 100 µM

---

Test system: UACC-62 melanoma
Experiment: NCI tumour cell line growth inhibition, 48 h
recordedEndpoint: TGI

S=C1CC(c2ccccc2)Sc2ccccc2N1 (stereo unspecified)	> 100 µM
O=C(Nc1ccccc1)N(C1=NCC(CI)S1)c1ccc(F)cc1F (stereo unspecified)	> 100 µM
COC(=O)/C=C1/CCC(C)(C(=O)NS(=O)(=O)c2ccc(C)cc2)C1(C)C (stereo unspecified)	> 100 µM
Nc1ccn(C2CCC(CO)O2)c(=S)n1 (stereo unspecified)	> 100 µM

Input Cc1cc(O)ccc1C1=NN(c2ccc(S(C)(=O)=O)cc2)C(=O)CC1 . Output TGI: > 100 µM

Input CC1CC[C@@]2(OC1)OC1CC3C4CCC5C[C@@H](OC6OC(CO)C(OC7OC(CO)C(O)C(OC8OC(CO)C(O)C(OC9OC(CO)C(O)C(O)C9O)C8O)C7OC7OC(CO)C(O)C(O)C7O)C(O)C6O)[C@H](O)C[C@]5(C)C4CC[C@]3(C)C1[C@@H]2C (stereo partly specified) . Output TGI: > 80.5 µM

Input COC(=O)/C(=N\Nc1nc(=S)[nH]n1N)C(C#N)c1ccccc1 (stereo unspecified) . Output TGI: > 100 µM

Input C=C[C@@H]1C[C@]2(C(=O)OC)Cc3nc4ccccc4nc3CC(C(=O)OC)=C2O1 . Output TGI: > 100 µM

Input COc1ccc(C(SCC(N)C(=O)O)(c2ccccc2)c2ccccc2)cc1 (stereo unspecified) . Output TGI: > 56.7 µM

Input CC1(C)Cc2c(C#N)c(N)c3c(c2CO1)C(=O)OC3=O . Output TGI: > 100 µM

Input NC(=O)CCC(N=C(N)c1csc(C2OC(CO)C(O)C2O)n1)C(=O)O (stereo unspecified) . Output TGI: > 100 µM

---

Tested on: MOLT-4 leukemia
Experiment: NCI tumour cell line growth inhibition, 48 h
Catalogue of compounds with associated TGI

Input O=C(CN(/C=C/C(=O)C(F)(F)F)c1ccc(Cl)cc1)c1ccccc1 . Output TGI: > 100 µM

Input CCc1n[nH]c(=O)n1/N=C/c1ccc(C)cc1 . Output TGI: > 100 µM

Input Cc1cc2c(cc1C)[n+](=O)c(C(=O)C/C(=N/OCCCc1ccccc1)C(=O)Nc1cc(Cl)ccc1Cl)c(C)n2[O-] . Output TGI: > 100 µM

Input CCOC(=O)n1cc(C2=C(c3cn(C)c4ccccc34)COC2=O)c2ccccc21 . Output TGI: > 48.4 µM

---

Tested on: IGROV1 ovarian
Assay: NCI tumour cell line growth inhibition, 48 h
Catalogue of compounds with associated GI50

These solved cases illustrate the format of a correct answer.
O=C(/C(=C\c1ccc([N+](=O)[O-])cc1)S(=O)Cc1ccc(F)cc1)c1ccc(F)cc1 (stereo not given)	1.69 µM
O=C1C(=O)c2c(nc3ccc(Br)cn23)-c2ccccc21	1.05 µM
C/C(=C\CCc1ccoc1)CC/C=C(\C)CCCN1CCOCC1	15.4 µM

Given the compound COc1ccc2c(c1)[n+](=O)c(C(=O)c1ccco1)c(C(F)(F)F)n2[O-] and test system IGROV1 ovarian, the measured GI50 is 2.57 µM

Given the compound Cn1cc(C2=C(c3cn(C)c4c([N+](=O)[O-])cccc34)C(=O)NC2=O)c2ccccc21 and test system IGROV1 ovarian, the measured GI50 is > 25 µM

Given the compound COc1ccc2cc(-c3cc4c(oc3=O)-c3ccccc3OC4O)c(=O)oc2c1 (stereo not given) and test system IGROV1 ovarian, the measured GI50 is 16.9 µM

Given the compound O=C1Nc2c(C(F)(F)F)cccc2[C@@]1(c1ccc(O)cc1)c1ccc(OC(F)(F)F)cc1 and test system IGROV1 ovarian, the measured GI50 is < 0.01 µM

Given the compound CCCCCCCCN(CCCCCCCC)CCCCCCNc1cc(OC)cc2cccnc12 and test system IGROV1 ovarian, the measured GI50 is 13.2 µM

Given the compound Cl.Fc1c[c-]c(-c2ccccn2)c(F)c1.[Pt].c1ccc(P(c2ccccc2)C([PH+](c2ccccc2)c2ccccc2)[PH+](c2ccccc2)c2ccccc2)cc1 and test system IGROV1 ovarian, the measured GI50 is 3.16 µM

Given the compound Cc1cc(O)ccc1C1=NN(c2ccc(S(C)(=O)=O)cc2)C(=O)CC1 and test system IGROV1 ovarian, the measured GI50 is 7.13 µM

Given the compound COC1CCN(C(=O)c2cc(Cc3n[nH]c(=O)c4ccccc34)ccc2F)CC1 and test system IGROV1 ovarian, the measured GI50 is > 60.4 µM

Given the compound Nc1nc2c(s1)CCc1c-2c(Br)n(Cc2ccccc2)c1Br and test system IGROV1 ovarian, the measured GI50 is 14.1 µM

Given the compound Cc1ccc(C(SCC(N)C(=O)O)(c2ccc(C)cc2)c2ccc(C)cc2)cc1 (stereo not given) and test system IGROV1 ovarian, the measured GI50 is 10.3 µM

Given the compound C=C(C)[C@@H]1CC[C@]2(C(=O)O)CC[C@]3(C)[C@H](CC[C@@H]4[C@@]5(C)C[C@@H](CC#Cc6ccc(C(F)(F)F)cc6)[C@H](O)C(C)(C)[C@@H]5CC[C@]43C)[C@@H]12 and test system IGROV1 ovarian, the measured GI50 is 3.56 µM

Given the compound c1cc2[nH]ncc2cc1-c1nc2ccc3[nH]ncc3c2c2c1CCCC2 and test system IGROV1 ovarian, the measured GI50 is 0.541 µM

Given the compound O=C1c2nsnc2C(=O)c2c(F)c(F)c(F)c(F)c21 and test system IGROV1 ovarian, the measured GI50 is 1.52 µM

Given the compound COC(=O)[C@]12CC[C@@H](C)[C@H](C)[C@@H]1C1=CC[C@@H]3[C@@]4(C)C(C=O)=C[C@@](C)(COC(C)=O)C4=CC[C@@]3(C)[C@]1(C)CC2 and test system IGROV1 ovarian, the measured GI50 is 5.51 µM

Given the compound Nc1nc(OCc2cc(Br)cs2)c2[nH]cnc2n1 and test system IGROV1 ovarian, the measured GI50 is 14.5 µM

Given the compound O=[N+]([O-])c1ccc(Sc2ncnc3nc[nH]c23)c2nonc12 and test system IGROV1 ovarian, the measured GI50 is 2.32 µM

Given the compound COc1ccc2c(c1)[nH]c(=O)c1c3cc(OC)ccc3cn21 and test system IGROV1 ovarian, the measured GI50 is 0.0157 µM
